- tested on: RSF1
- test details: pooled miR-30 sensor sort-seq; sequence = guide strand
- settings: shRNA
Outcome label depends on sensor-assay potency score (higher = more potent) relative to -0.6: at/above gives label 1, below gives label 0.

# sequence entry, tested on, class name
measured = [
    ("TTCTTTTCTTTCTTCATCCAAA", "RSF1", "label 0"),
    ("TTACCAAGGACCATGAACCTGG", "RSF1", "label 1"),
    ("TAAGGCAACATCCAAATCCTGC", "RSF1", "label 0"),
    ("TATTTCTTTACCACGTCGCAAA", "RSF1", "label 0"),
    ("TAGAATTTGTATCTTTCTCTGA", "RSF1", "label 1"),
    ("TTGATCATCTTGTTCTTCTATG", "RSF1", "label 1"),
]

Does TTCTTTTGGTACTTCTCCGTTG have a reported sensor-assay potency score (higher = more potent) of at least -0.6?
label 0

Quick check: does TTGAGATCCATCACTGATCTTG have sensor-assay potency score (higher = more potent) greater than or equal to -0.6?
label 1

* * *

List of sensor-assay potency score (higher = more potent) values.
- tested on: S100P
- test details: pooled miR-30 sensor sort-seq; sequence = guide strand
- settings: shRNA
Form rule: numeric answer, no unit written next to it.

Recorded sensor-assay potency score (higher = more potent) for GAACTCACTGAAGTCCACCTGG , please?
-0.698

* * *

Listed next: entries and their corresponding sensor-assay potency score (higher = more potent).
- tested on: GABRB2
- test details: pooled miR-30 sensor sort-seq; sequence = guide strand
- settings: shRNA
Kindly provide the number alone.

Before answering, review these 4 worked examples.
# sequence entry, tested on, test value
records = [
    ("TTTCTCTTAAGCTTAAAGCTGA", "GABRB2", -0.0649),
    ("TACATTATAGGACAGCCTCTTA", "GABRB2", -0.982),
    ("TATCTCTCCAGGCTTGTTGAAA", "GABRB2", -1.12),
    ("TCAGAAACCATATCGATGCTGG", "GABRB2", 0.313),
]

What value of measured sensor-assay potency score (higher = more potent) is listed for TTTGTAATCTACAATAGAGAAC ?
-1.05

Any idea what its sensor-assay potency score (higher = more potent) is? The sequence is TTGCGCCACATGTCGTTCCAGA
-0.912

// lookup sensor-assay potency score (higher = more potent) for TCATAGGCTAGCATTGTGCTTC
-0.299

Entry TCTACAATAGAGAACTGTGGAA has what sensor-assay potency score (higher = more potent)?
-0.939

Given the entry TTCAGGAGTCTATCCACCGTCT , report its measured sensor-assay potency score (higher = more potent).
0.156

Given TTTCAGGAGTCTATCCACCGTC , state its recorded sensor-assay potency score (higher = more potent).
-0.228

State the recorded sensor-assay potency score (higher = more potent) for this entry: TTAACCAGCGACATATTACTAG
-0.576

Fill in the blank: the reported sensor-assay potency score (higher = more potent) of TAGGCTAGCATTGTGCTTCTGG is ____.
0.754

Fill in the blank: the reported sensor-assay potency score (higher = more potent) of TTAAAGCTGAGGGATAACCTGG is ____.
-0.689

Which sensor-assay potency score (higher = more potent) reading was recorded for the sequence TTACATTATAGGACAGCCTCTT ?
-0.0422

Recorded sensor-assay potency score (higher = more potent) for TTGTTGAAAGTACATTGTCAAG , please?
-1.79

* * *

- tested on: TDRD7
- test details: pooled miR-30 sensor sort-seq; sequence = guide strand
- settings: shRNA
measured quantity: sensor-assay potency score (higher = more potent)
Answer using only a numeral; do not append any unit.

# sequence entry, test value
records = [
    ("TAAATTATCACTCATTTCCTTA", -0.487),
    ("ATAGTCAACATAGCATACCTTT", -1.08),
]

Endpoint output: sensor-assay potency score (higher = more potent) of TAGATTGTGGAAGATCTGCTAA . Value?
-0.00415

Which sensor-assay potency score (higher = more potent) reading was recorded for the sequence TGACTTGTCACATATAGCCTTC ?
-0.332

# input sequence: TAGAAGGTCACTGAGCTTGTTC ; wanted: its sensor-assay potency score (higher = more potent)
-0.0033

Look at this sequence and give its reported sensor-assay potency score (higher = more potent). TTTCCTTTGTCTCTTAACGGTG
-1.32

Which sensor-assay potency score (higher = more potent) value belongs to TAGTGTAGGGAAACCTAGCTGT ?
-0.0859

Which sensor-assay potency score (higher = more potent) value belongs to TTCAATGACTGTCTGCACCAGT ?
0.309

* * *

- tested on: CD320
- test details: pooled miR-30 sensor sort-seq; sequence = guide strand
- settings: shRNA
measured quantity: sensor-assay potency score (higher = more potent)

Previously resolved entries follow.
# sequence entry, test value
records = [
    ("TCATCGCTGCCATCGCTGCAGT", -1.32),
    ("TAGTCCGAGGCCGAGCAGCAGC", -1.57),
    ("TCCACAGCCGAGCTCGTCGCTG", -1.78),
]

Reported sensor-assay potency score (higher = more potent) for CD320, given ATGCAGTCATCGCTCAGCGTGC ?
-1.64

State its sensor-assay potency score (higher = more potent) on CD320: TCGCTGCAGTCCAAGTCCCTGT
-1.39

Test system CD320; read-out sensor-assay potency score (higher = more potent); what value for TCTGTTCTGACAGCAGCAGGGA ?
-0.673

Please provide the recorded sensor-assay potency score (higher = more potent) for TTGCACTGAGCACCGCAGCAGC , tested on CD320.
-1.06

Could you share what sensor-assay potency score (higher = more potent) was measured for AATGCAGTCATCGCTCAGCGTG , tested on CD320?
-1.16

* * *

Entries and their measured sensor-assay potency score (higher = more potent) follow.
- tested on: RNF157
- test details: pooled miR-30 sensor sort-seq; sequence = guide strand
- settings: shRNA
No unit in the answer, only the number.

# sequence entry, tested on, test value
data = [
    ("TAAGGAAACACAACTGGTCTGT", "RNF157", 0.685),
    ("TACCATTCTGGAACTCTTCCGT", "RNF157", 0.188),
    ("TTCCTCAGCACATTTGACGAGC", "RNF157", -0.263),
    ("TTCAATTCCATAGATCTCCTGA", "RNF157", 0.823),
    ("TTTCGGATATTGACCAGGCTTC", "RNF157", -1.09),
    ("TTCCTCTTCATGCAGCACGGAA", "RNF157", -1.64),
]

Could you now look at the following sequence, please?
Lab note: need sensor-assay potency score (higher = more potent) for TTGAGTCCCTGACTGCTGCTGT on RNF157, anyone have it?
0.522

* * *

- tested on: SLC44A2
- test details: pooled miR-30 sensor sort-seq; sequence = guide strand
- settings: shRNA
Where sensor-assay potency score (higher = more potent) equals or exceeds -0.7, the correct label is label 1; where it does not, the label is label 0.

Worked examples, 3 sequences total:
# sequence entry, class name
data = [
    ("TACTTGTTTCTCGCAGTCTGGA", "label 1"),
    ("TCTTTGATGAGTGCAATCGCGA", "label 0"),
    ("TCAGACACAAACACCGTCCTTC", "label 1"),
]

Does the reported sensor-assay potency score (higher = more potent) for TTATAGTACTCAAAGTCCCGGG fall at or above the -0.7 mark?
label 1

* * *

- tested on: SLMAP
- test details: pooled miR-30 sensor sort-seq; sequence = guide strand
- settings: shRNA
measured quantity: sensor-assay potency score (higher = more potent)
Lab note: jot down the number only; don't add units.

// worked examples, sensor-assay potency score (higher = more potent) included
# sequence entry, test value
rows = [
    ("TTCATCTCTAGTACTTGTGATT", -0.717),
    ("TTGAAGATAAAACTTGCCCGTC", 0.116),
    ("TTCACTGTCCTTCTCCTCCCGG", -0.623),
]

Please give the measured sensor-assay potency score (higher = more potent) for this sequence: TAATTCTCTTAATTCTTCCTGA
0.412

* * *

- tested on: FAM151B
- test details: pooled miR-30 sensor sort-seq; sequence = guide strand
- settings: shRNA
I would appreciate it if you labelled entries rule met when sensor-assay potency score (higher = more potent) is -0.7 or higher, otherwise rule not met.

# sequence entry, class name
measured = [
    ("TAGAGTATTATCACTGTTTGTT", "rule met"),
    ("TATTGCTTTTCATAACTTCAGT", "rule met"),
    ("TAATGTAAAGTAAATCTTCAAC", "rule not met"),
    ("TATGAAACCAAAACACAGGAAA", "rule not met"),
    ("TTGAAATCCAGCTTGATGCCTT", "rule met"),
]

Is the recorded value of sensor-assay potency score (higher = more potent) equal to or greater than -0.7 for this sequence? TTTGATTTCTTTAACAGCCAAA
rule not met

Dear colleague, could you confirm whether TTTGCATCTATTACTTTGCTAT has sensor-assay potency score (higher = more potent) at or above -0.7?
rule met

Determine whether this sequence has sensor-assay potency score (higher = more potent) no lower than -0.7: TTTTCCAGTCCAAATAGTCAGG
rule not met
